So I've got a bunch of compounds here, and I need their log10 IC50 values.
STUDY_SYSTEM: full-length human recombinant BTK (Homo sapiens (Human), UniProt Q06187)
Sequence (Q06187 whole entry): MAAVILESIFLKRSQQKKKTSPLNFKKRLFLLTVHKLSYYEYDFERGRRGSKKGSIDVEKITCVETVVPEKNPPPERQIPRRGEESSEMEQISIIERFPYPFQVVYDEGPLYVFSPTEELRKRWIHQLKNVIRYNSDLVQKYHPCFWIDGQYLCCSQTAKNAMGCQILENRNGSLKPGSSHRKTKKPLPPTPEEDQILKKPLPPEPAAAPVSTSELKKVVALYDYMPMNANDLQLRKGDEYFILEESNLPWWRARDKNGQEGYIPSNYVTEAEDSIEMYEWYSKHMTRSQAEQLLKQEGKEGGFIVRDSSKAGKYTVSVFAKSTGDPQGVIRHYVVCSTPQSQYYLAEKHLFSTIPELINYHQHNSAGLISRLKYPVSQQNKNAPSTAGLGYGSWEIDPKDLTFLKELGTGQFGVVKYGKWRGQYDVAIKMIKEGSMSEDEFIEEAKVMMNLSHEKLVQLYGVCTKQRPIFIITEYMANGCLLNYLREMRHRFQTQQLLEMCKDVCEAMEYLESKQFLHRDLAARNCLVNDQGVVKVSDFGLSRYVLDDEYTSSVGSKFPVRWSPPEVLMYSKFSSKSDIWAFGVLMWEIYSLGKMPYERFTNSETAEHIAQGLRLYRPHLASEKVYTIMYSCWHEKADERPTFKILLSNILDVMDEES
RUN_DESCRIPTION: Inhibition of Btk enzymatic activity (biochemical enzyme assay, Caliper)
CONDITION_DESCRIPTION: 30° C., 60 minutes
All values: log10 IC50 [nM].

// query Return the recorded log10 IC50 value; entry: Cc1c(NC(=O)N2CC(OC(C)(C)C)C2)cc(F)cc1-c1ncnc2[nH]c(C3=CCOCC3)cc12 [Example 61]
// result 0.78

// query Given CN(C)C(=O)N1CC=C(c2cc3c(-c4cccc(NC(=O)c5ccc(C6CC6)cc5)c4CO)ncnc3[nH]2)CC1 [Example 17] , respond with its log10 IC50.
// result 0.00

// query Determine from records and report log10 IC50 for Cc1c(NC(=O)c2ccc(C(C)(C)C)cc2)cc(F)cc1-c1ncnc2[nH]c(C3=CCN(C(=O)N(C)C)CC3)cc12 [Example 41]
// result 1.36

// query Annotate the compound Cc1c(NC(=O)c2ccc(N(C)C)cc2)cc(F)cc1-c1ncnc2[nH]c(C3=CCN(C(=O)N(C)C)CC3)cc12 [Example 15] with its measured log10 IC50.
// result 1.23

// query For the compound Cc1c(NC(=O)c2ccc(C(C)(C)C)cc2)cc(F)cc1-c1ncnc2[nH]c(C3=CCOCC3)cc12 [Example 49] , give its reported log10 IC50.
// result 2.00

// query Name the recorded log10 IC50 of the item Cc1c(NC(=O)c2ccc(C(C)(C)C)cc2)cccc1-c1ncnc2[nH]c(C3=CCS(=O)(=O)CC3)cc12 [Example 53] in your answer.
// result 1.81

// query Indicate its recorded log10 IC50; the compound in question is Cc1c(NC(=O)c2ccc(C(C)(C)C)cc2)cccc1-c1ncnc2[nH]c(C3=CCC4(CC3)OCCO4)cc12 [Example 65]
// result 0.95

// query Input Cc1c(NC(=O)c2ccc(C(C)(C)C)cc2)cccc1-c1ncnc2[nH]c(C3=CCOCC3)cc12 [Example 64] , output reported log10 IC50.
// result 1.18

// query Supply log10 IC50 value. Item: CC(=O)c1ccc(C(=O)Nc2cc(F)cc(-c3ncnc4[nH]c(C5=CCN(C(=O)N(C)C)CC5)cc34)c2C)cc1 [Example 19]
// result 1.36

// query Input Cc1c(NC(=O)c2ccc(N(C)C)cc2)cc(F)cc1-c1ncnc2[nH]c(C3=CCOCC3)cc12 [Example 50] , output reported log10 IC50.
// result 1.67
